# PROTOCOL SUMMARY: counter-screen for M1 agonists: effect in parental CHO-K1 cells (AID 602248);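 note: untransfected CHO-K1 host cells lacking M1 receptor as counterscreen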
# PARTICULARS: Fluo-8 calcium fluorescence, at 3 µM, hits give high values, scaled to maximal ATP response, vehicle zero
Among all 360,000 compounds or so, about 1,700 (0.47%) were called active. The sample holds actives, similar compounds and a random draw of the others, so the mix is not that of the screen.
Please respond with reported activation for every item in the list.
Note: unit % is implicit; provide only the numeric part.

Retrieve activation measured for `Cc1onc(-c2ccccc2)c1C(=O)NNC(=S)NC(=O)c1ccc(F)cc1` and print it. 28.7

State its activation for this compound: `COc1cccc(CNn2cn[nH]c2=S)c1OCc1ccccc1` 1.05

Hello, please tell me recorded activation for this one: `COc1ccccc1CCC(=O)NNC(=O)c1ccncc1` 0.44

Respond only with activation recorded for `COc1cccc(CNCCc2c[nH]c3ccccc23)c1OCc1ccccc1F` 23.3

Report activation for `COc1ccc(C(=O)NNC(=S)NC(=O)c2ccccc2)cc1` 38.2

Consider the compound Cc1c(Cl)c([N+](=O)[O-])nn1CCCC(=O)NC(C)c1ccccc1 (configuration not stated) . State its measured activation. -0.09

Identify the reported activation for the following entry. `O=C(/C=C/c1ccc(F)cc1)NC(=S)NNC(=O)c1cccnc1` 1.3

Fill in activation for record `Cn1nnc(NC(=S)NC(=O)c2ccccc2)n1` 0.43

Give the reported activation for this compound. `O=C(NNC(=S)NCc1ccccc1)c1ccc(OC(F)F)cc1` 15.8

Quickly give me recorded activation for CC1C(=O)C(C)C(c2ccc(O)cc2)NC1c1ccc(O)cc1 (configuration not stated) 4.02

Read the entry `O=C(CSc1ccc(Cl)cc1)NC1CC1` and write its reported activation. -0.25

Please supply the value of reported activation for the item `Fc1ccccc1COc1ccccc1CNCc1ccncc1` 4.4
